- Tested on: Salmonella typhimurium TA100
- Measurement notes: Ames test (reverse mutation test), TA100
- Type: cell-based
- Stated conditions: S9 Mix -; dose 1667 µg/plate
Property measured: Number of revertant colonies TA100

compound="Nc1cc(-c2cccc(OC(F)(F)F)c2)n(-c2cccc(F)c2)n1 [Metabolite G]" measured=61
compound="Cc1ccc(-n2nc(N)cc2-c2cccc(OCC(F)(F)F)c2)cc1 [Metabolite F]" measured=58
compound="Cc1cccc(-n2nc(N)cc2-c2cccc(OC(F)(F)F)c2)c1 [Metabolite H]" measured=79
compound="CC(C)(OCc1cc(F)cc(-c2cc(N)nn2-c2ccc(F)cc2)c1)C(F)(F)F [Metabolite D]" measured=69
compound="Nc1cc(-c2cccc(OCC(F)(F)F)c2)n(-c2ccc(F)cc2)n1 [Metabolite E]" measured=27
